Where these numbers come from: patent US7375107B2

test_system: epithelial sodium channels (ENaC), airway epithelial monolayers (Canis lupus familiaris, UniProt A0A8I3MKE6+A0A8I3Q679+Q95165)
assay_summary: Sodium channel blocking activity: lumenal drug inhibition of airway epithelial sodium currents (short circuit current, ISC) in Ussing chambers
test_context: sodium channel blocking activity; short circuit current in airway epithelial monolayers
outcome_measure: pEC50
By convention, pEC50 is the negative base-10 log of a molar concentration.

// recorded pEC50 for N=C(NCCCCCCCCCN)NC(=O)c1nc(Cl)c(N)nc1N [compound 19335] : 7.44

###

test_system: epithelial sodium channels (ENaC), airway epithelial monolayers (Canis lupus familiaris, UniProt A0A8I3MKE6+A0A8I3Q679+Q95165)
Sequence (A0A8I3Q679 1-649): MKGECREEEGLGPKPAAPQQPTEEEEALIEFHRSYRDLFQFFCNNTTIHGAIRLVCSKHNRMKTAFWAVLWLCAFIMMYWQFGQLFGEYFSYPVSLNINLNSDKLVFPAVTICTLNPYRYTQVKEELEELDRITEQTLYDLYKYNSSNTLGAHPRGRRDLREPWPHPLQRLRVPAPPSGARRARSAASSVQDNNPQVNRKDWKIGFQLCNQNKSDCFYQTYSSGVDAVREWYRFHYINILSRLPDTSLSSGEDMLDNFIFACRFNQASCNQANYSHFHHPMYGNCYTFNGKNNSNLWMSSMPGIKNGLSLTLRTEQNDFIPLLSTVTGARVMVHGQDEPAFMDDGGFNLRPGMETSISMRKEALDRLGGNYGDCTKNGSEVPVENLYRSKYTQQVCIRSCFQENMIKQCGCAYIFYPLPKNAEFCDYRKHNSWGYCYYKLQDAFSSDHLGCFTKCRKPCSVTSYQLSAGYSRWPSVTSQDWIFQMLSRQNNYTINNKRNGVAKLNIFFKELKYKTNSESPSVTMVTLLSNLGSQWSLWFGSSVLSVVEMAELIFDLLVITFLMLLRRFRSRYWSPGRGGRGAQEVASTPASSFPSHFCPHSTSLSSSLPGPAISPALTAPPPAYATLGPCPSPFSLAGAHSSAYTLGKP
Sequence (Q95165 1-641): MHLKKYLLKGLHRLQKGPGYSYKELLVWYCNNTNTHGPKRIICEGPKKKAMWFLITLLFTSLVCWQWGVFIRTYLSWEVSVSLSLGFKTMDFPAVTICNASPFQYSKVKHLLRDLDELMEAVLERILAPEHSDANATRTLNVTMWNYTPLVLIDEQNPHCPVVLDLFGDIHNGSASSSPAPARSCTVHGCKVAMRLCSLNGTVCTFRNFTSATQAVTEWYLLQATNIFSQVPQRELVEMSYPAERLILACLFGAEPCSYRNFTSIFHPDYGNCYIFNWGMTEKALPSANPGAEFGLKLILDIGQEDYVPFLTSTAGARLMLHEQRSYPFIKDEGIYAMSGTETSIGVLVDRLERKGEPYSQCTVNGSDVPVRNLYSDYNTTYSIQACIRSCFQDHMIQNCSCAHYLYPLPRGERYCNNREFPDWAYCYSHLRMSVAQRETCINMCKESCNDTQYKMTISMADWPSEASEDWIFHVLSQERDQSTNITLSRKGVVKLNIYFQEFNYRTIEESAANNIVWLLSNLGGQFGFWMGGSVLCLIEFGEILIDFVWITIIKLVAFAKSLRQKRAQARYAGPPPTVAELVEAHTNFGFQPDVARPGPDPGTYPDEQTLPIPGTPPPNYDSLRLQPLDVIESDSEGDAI
Sequence (A0A8I3MKE6 1-646): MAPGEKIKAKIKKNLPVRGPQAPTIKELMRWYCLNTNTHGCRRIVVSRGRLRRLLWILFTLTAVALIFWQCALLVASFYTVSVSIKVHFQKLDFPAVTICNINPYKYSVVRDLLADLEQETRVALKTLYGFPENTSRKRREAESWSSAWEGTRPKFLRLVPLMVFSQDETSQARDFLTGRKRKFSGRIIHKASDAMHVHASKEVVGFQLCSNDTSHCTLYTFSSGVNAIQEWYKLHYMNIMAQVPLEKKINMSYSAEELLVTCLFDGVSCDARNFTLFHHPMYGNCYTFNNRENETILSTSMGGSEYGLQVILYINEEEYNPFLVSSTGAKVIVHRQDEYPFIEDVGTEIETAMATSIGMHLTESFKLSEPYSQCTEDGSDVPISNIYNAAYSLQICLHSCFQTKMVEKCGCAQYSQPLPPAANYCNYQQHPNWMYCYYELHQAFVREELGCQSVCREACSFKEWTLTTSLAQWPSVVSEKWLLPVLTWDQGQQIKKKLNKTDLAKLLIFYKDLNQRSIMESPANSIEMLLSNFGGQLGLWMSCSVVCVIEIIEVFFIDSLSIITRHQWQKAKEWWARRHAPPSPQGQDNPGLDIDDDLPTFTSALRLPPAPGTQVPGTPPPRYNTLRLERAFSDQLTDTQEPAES
assay_summary: Sodium channel blocking activity: lumenal drug inhibition of airway epithelial sodium currents (short circuit current, ISC) in Ussing chambers
Type: cell-based, canine
test_context: relative potency for PSA 4022 = 100 using EC50 from PSA 4022 in same run
// Fold Amiloride** (PSA 4022 = 100) lookup, one value per entry

See these solved cases before continuing.
{"columns": ["molecule_smiles", "Fold Amiloride** (PSA 4022 = 100)"],
 "data": [
  ["N=C(NCCCCCCCCCCCN)NC(=O)c1nc(Cl)c(N)nc1N", "51 ± 15 (n = 3)"],
  ["CC(C)(C)OC(=O)NCCCCCCCCCNC(=N)NC(=O)c1nc(Cl)c(N)nc1N", "12 (n = 1)"],
  ["N=C(NCCCCCCN)NC(=O)c1nc(Cl)c(N)nc1N", "4 ± 1 (n = 4)"],
  ["N=C(N)NCCCCCCCNC(=N)NC(=O)c1nc(Cl)c(N)nc1N", "8 ± 7 (n = 3)"],
  ["N=C(N)NCCCCCCCCCCNC(=N)NC(=O)c1nc(Cl)c(N)nc1N", "41 ± 29 (n = 2)"]
]}

// recorded Fold Amiloride** (PSA 4022 = 100) for `N=C(NCCCCCCCN)NC(=O)c1nc(Cl)c(N)nc1N` : 8 ± 2 (n = 4)

// recorded Fold Amiloride** (PSA 4022 = 100) for `N=C(NCCCCCCCCCCN)NC(=O)c1nc(Cl)c(N)nc1N` : 37 ± 1 (n = 4)

// recorded Fold Amiloride** (PSA 4022 = 100) for `CC(C)(C)OC(=O)NCCCOCCCNC(=N)NC(=O)c1nc(Cl)c(N)nc1N` : 7 ± 2 (n = 4)

// recorded Fold Amiloride** (PSA 4022 = 100) for `N=C(NCCCCCCCCN)NC(=O)c1nc(Cl)c(N)nc1N` : 12 ± 3 (n = 3)

###

test_system: epithelial sodium channels (ENaC), airway epithelial monolayers (Canis lupus familiaris, UniProt A0A8I3MKE6+A0A8I3Q679+Q95165)
assay_summary: Sodium channel blocking activity: lumenal drug inhibition of airway epithelial sodium currents (short circuit current, ISC) in Ussing chambers
Format: cell-based, canine
test_context: relative potency for PSA 4022 = 100 using EC50 from PSA 4022 in same run
// Fold Amiloride** (PSA 4022 = 100) lookup, one value per entry

See these solved cases before continuing.
{"columns": ["compound", "outcome_measure", "result"],
 "data": [
  ["CC(C)(C)OC(=O)NCCCCCCCCNC(=N)NC(=O)c1nc(Cl)c(N)nc1N [compound 19156]", "Fold Amiloride** (PSA 4022 = 100)", "18 ± 2 (n = 2)"],
  ["N=C(N)NCCCCCCCCCCCNC(=N)NC(=O)c1nc(Cl)c(N)nc1N [compound 23991]", "Fold Amiloride** (PSA 4022 = 100)", "20 ± 12 (n = 4)"]
]}

// recorded Fold Amiloride** (PSA 4022 = 100) for N=C(NCCCCCCCCCN)NC(=O)c1nc(Cl)c(N)nc1N [compound 19335] : 19 ± 7 (n = 4)

// recorded Fold Amiloride** (PSA 4022 = 100) for N=C(N)NCCCCCCCCCCCCNC(=N)NC(=O)c1nc(Cl)c(N)nc1N [compound 23683] : 68 ± 48 (n = 6)

// recorded Fold Amiloride** (PSA 4022 = 100) for N=C(N)NCCCCCCCCCNC(=N)NC(=O)c1nc(Cl)c(N)nc1N [compound 19006] : 11 ± 2 (n = 3)

// recorded Fold Amiloride** (PSA 4022 = 100) for N=C(NCCCCCCCCCCCCN)NC(=O)c1nc(Cl)c(N)nc1N [compound 23609] : 66 ± 36 (n = 4)

// recorded Fold Amiloride** (PSA 4022 = 100) for CC(C)(C)OC(=O)NCCCCCCCCCCCCNC(=N)NC(=O)c1nc(Cl)c(N)nc1N [compound 23776] : 7 (n = 1)

// recorded Fold Amiloride** (PSA 4022 = 100) for N=C(N)NCCCCCCCCNC(=N)NC(=O)c1nc(Cl)c(N)nc1N [compound 19604] : 63 ± 61 (n = 4)
